# test: NCI Yeast Anticancer Drug Screen. Data for the cln2 rad14 strain (AID 165)
# conditionInfo: S. cerevisiae cln2 rad14 strain, at 50.0 µM (retest, dose inferred, filed as 5.0), hits give high values
Compounds without any hit were thinned out: in the full panel of roughly 79,000, 15% have a hit.
If the reported growth inhibition equals or exceeds 10%, assign satisfied. If not, assign not satisfied.

Example cases with answers are listed next.
>  <compound>
CCOC(=O)c1ccccc1N

>  <assignedCategory>
not satisfied

$$$$
>  <compound>
CC[C@](C)(O)C(=O)O[C@H]1C(=O)O[C@@H]2C[C@H]3C(C)=CC(=O)[C@@H](O)[C@]3(C)[C@H]3[C@@]4(O)OC[C@]32[C@@H]1[C@@H](C)[C@H]4O

>  <assignedCategory>
satisfied

$$$$
>  <compound>
[Cl][Sn]1([c]2ccccc2)[O]CCNCC[O]1

>  <assignedCategory>
satisfied

$$$$
>  <compound>
O=C(Cl)c1ccccn1

>  <assignedCategory>
satisfied

$$$$
>  <compound>
CS/C([S-])=N/N=C/c1ccccn1.[Cl][Pt+]

>  <assignedCategory>
satisfied

$$$$

Ask: Could you tell me if the measured growth inhibition of COC1=C(N2CC2)C(=O)C(OC)=C(N2CC2)C1=O reaches 10% or more?
Reply: satisfied

Ask: Could you tell me if the measured growth inhibition of CCNC(=O)O/N=C1/C=C2CC[C@@H]3C(CC[C@@]4(C)C3CC[C@@H]4OC(=O)NCC)[C@@]2(C)CC1 (stereo not given in full) reaches 10% or more?
Reply: satisfied

Ask: Could you tell me if the measured growth inhibition of CC(=O)C1CCC2C3CCC4=CC(=[N+]5CCCCC5)CCC4(C)C3CCC12C (stereo not given) reaches 10% or more?
Reply: satisfied

Ask: Could you tell me if the measured growth inhibition of Cc1ccc(S)cc1.[Pb] reaches 10% or more?
Reply: not satisfied

Ask: Could you tell me if the measured growth inhibition of O=c1oc2ccccc2c(O)c1C(C/C(CCN1CCCC1)=N\Nc1ccccc1)c1ccccc1 (stereo not given) reaches 10% or more?
Reply: not satisfied
